Entry source: patent US20090312352A1

Here's what we have: IC50 numbers for UniProt:P51452.
Sequence (P51452 whole entry): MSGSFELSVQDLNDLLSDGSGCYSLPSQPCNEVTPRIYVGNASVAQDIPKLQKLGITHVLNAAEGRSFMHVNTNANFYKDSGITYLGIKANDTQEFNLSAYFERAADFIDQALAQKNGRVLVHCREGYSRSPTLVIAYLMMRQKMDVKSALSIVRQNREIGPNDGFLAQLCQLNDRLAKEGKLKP
Entry format: amount then unit.

Examples from the recorded data:
Task item: Query for UniProt:P51452: what IC50 does the record show for CSCCC(C(=O)O)N1C(=O)/C(=C\c2ccc(-c3ccc([N+](=O)[O-])cc3)o2)SC1=S (centres unmarked) ?
Reply: 49 µM

Task item: What value of IC50 on UniProt:P51452 does "O=C1NC(=S)NC(=O)C1=Cc1ccc(-c2ccc(C(=O)O)c(O)c2)o1" have?
Reply: 34.7 µM

Task item: # returns recorded IC50 (system: UniProt:P51452) for "O=C1NC(=O)/C(=C/c2ccc(-c3ccc(O)c(C(=O)O)c3)o2)S1"
Reply: 27.5 µM

Task item: Give UniProt:P51452 IC50 for "O=C(Cn1nnc(-c2ccccc2)n1)N/N=C/c1ccc(-c2ccc(O)c(C(=O)O)c2)o1"
Reply: 31.6 µM

Attention now shifts to the item below.
Task item: Find the measured IC50: item "Cc1cc2nc3s/c(=C\c4ccc(-c5ccc(O)c(C(=O)O)c5)o4)c(=O)n3c2cc1C" , target or system UniProt:P51452.
Reply: 21.2 µM

----------
As a worked illustration, we turn to IC50 data collected for UniProt:O68720.
Quick note: give the figure in µM, leave out the unit.

Examples from the recorded data:
Task item: Endpoint output: IC50 of "O=C1NC(=O)/C(=C/c2ccc(-c3ccc(O)c(C(=O)O)c3)o2)S1" . Value?
Reply: 3.9

Task item: Which IC50 value belongs to CSCCC(C(=O)O)N1C(=O)/C(=C\c2ccc(-c3ccc([N+](=O)[O-])cc3)o2)SC1=S (centres unmarked) ?
Reply: 11.5

Task item: Reported IC50 for "Cc1cc2nc3s/c(=C\c4ccc(-c5ccc(O)c(C(=O)O)c5)o4)c(=O)n3c2cc1C" : what is it?
Reply: 2

***
Task item: For "O=C1NC(=S)NC(=O)C1=Cc1ccc(-c2ccc(C(=O)O)c(O)c2)o1" , what is its reported IC50?
Reply: 1.4

Task item: Quick one: IC50 for "O=C(Cn1nnc(-c2ccccc2)n1)N/N=C/c1ccc(-c2ccc(O)c(C(=O)O)c2)o1" ?
Reply: 5.1

----------
VHX (Homo sapiens, UniProt Q9NRW4) data, read-out pIC50
Sequence (Q9NRW4 whole entry): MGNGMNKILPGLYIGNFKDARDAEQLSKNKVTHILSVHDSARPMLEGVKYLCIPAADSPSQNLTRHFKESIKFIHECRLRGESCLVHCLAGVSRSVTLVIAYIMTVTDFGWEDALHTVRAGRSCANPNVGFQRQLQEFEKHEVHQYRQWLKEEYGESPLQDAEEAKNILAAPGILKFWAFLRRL
Interpret pIC50 as the negative base-10 log of the concentration measured in mol/L.

As a guide, the following entries are already answered.
Task item: Tell me the measured pIC50 of CSCCC(C(=O)O)N1C(=O)/C(=C\c2ccc(-c3ccc([N+](=O)[O-])cc3)o2)SC1=S (centres unmarked) , please.
Reply: 3.97

Task item: Dear colleague, I am looking for the recorded pIC50 of the following compound: "O=C(Cn1nnc(-c2ccccc2)n1)N/N=C/c1ccc(-c2ccc(O)c(C(=O)O)c2)o1"
Reply: 4.46

Next:
Task item: Look at this compound and give its reported pIC50. "O=C1NC(=O)/C(=C/c2ccc(-c3ccc(O)c(C(=O)O)c3)o2)S1"
Reply: 4.41

----------
Parameter: log10 Ki. Scope: all listed entries.
- Measured Target: YopH (Yersinia pestis, UniProt O68720)
- Sequence (O68720 1-468): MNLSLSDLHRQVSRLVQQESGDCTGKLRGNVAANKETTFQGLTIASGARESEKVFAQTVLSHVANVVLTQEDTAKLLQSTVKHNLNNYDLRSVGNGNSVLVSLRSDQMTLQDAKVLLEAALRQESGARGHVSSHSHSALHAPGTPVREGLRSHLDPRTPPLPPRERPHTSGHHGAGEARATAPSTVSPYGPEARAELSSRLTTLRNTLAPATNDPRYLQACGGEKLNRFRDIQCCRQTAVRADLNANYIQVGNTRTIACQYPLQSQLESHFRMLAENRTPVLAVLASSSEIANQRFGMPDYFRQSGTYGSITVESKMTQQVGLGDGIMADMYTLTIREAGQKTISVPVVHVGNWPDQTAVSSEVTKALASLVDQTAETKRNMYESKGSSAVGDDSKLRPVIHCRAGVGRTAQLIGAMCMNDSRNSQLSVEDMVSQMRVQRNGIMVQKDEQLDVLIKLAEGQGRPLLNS
- Protocol Description: biochemical
- Assay type: biochemical
- Condition Notes: Ki(c)
// do not treat as linear: log10 of Ki, unit µM

Worked examples follow.
Task item: For "Cc1cc(C)c2nc3s/c(=C\c4ccc(-c5ccc(O)c(C(=O)O)c5)o4)c(=O)n3c2c1" , what is its reported log10 Ki?
Reply: 0.95

Task item: # lookup: log10 Ki of "COc1ccc(C2=CC(=O)C=CC2=O)cc1"
Reply: 0.81

Task item: Value lookup for log10 Ki; key = "N=C1NC(=O)/C(=C\c2ccc(-c3cccc(C(=O)O)c3)o2)S1"
Reply: 1.28

Task item: Which log10 Ki is listed for "Cc1cc2nc3s/c(=C\c4ccc(-c5ccc(O)c(C(=O)O)c5)o4)c(=O)n3c2cc1C" ?
Reply: -0.04

Task item: I'd like to know its log10 Ki. The compound in question is "c1ccc(Nc2nc(-c3ccccc3)[n+](-c3ccccc3)s2)cc1"
Reply: 0.27

// below: log10 Ki requested for another compound
Task item: Look up log10 Ki for this compound: "O=C(O)c1cccc(-c2ccc(/C=C3\SC(=S)N(Cc4ccccc4)C3=O)o2)c1"
Reply: 1.25

----------
Ki by entry:
- Measured Target: YopH (Yersinia pestis, UniProt O68720)
- Protocol Description: biochemical
- Type: biochemical
- Condition Notes: Ki(u)
The reply should read as a number followed by its unit.

Example cases with answers are listed next.
Task item: What does the record list as Ki for "Cc1cc(C)c2nc3s/c(=C\c4ccc(-c5ccc(O)c(C(=O)O)c5)o4)c(=O)n3c2c1" ?
Reply: 10.9 µM

Task item: Quick check: Ki of "Cc1ccc(-c2ccc(/C=C3\SC(=S)NC3=O)o2)c([N+](=O)[O-])c1" ?
Reply: 94.1 µM

Now, please, on to the next compound.
Task item: Please report the recorded Ki for "COc1ccc(C2=CC(=O)C=CC2=O)cc1" .
Reply: 8.02 µM
